Tested on: IFN-β secretion by THP-1 cells
ASSAY COMMENT: Activation of IFN-β secretion by THP-1 cells (Human IFN-beta ELISA)
Type: cell-based
TEST SETTINGS: Homo sapiens, THP-1, 24 h, THP-1 cells, 24 hours, IFN-β ELISA
pEC50: −log10 of the molar value. Counter-ions that a name gives are not always drawn.
MEASUREMENT LABEL: pEC50

Some compounds with known pEC50 results, for comparison:
Tell me pEC50 reported for Nc1nc2c(ncn2[C@@H]2O[C@@H]3CO[P@@](=O)(S)OC4C[C@H](n5cnc6c(N)nc(Cl)nc65)O[C@@H]4CO[P@@](=O)(S)OC3C2F)c(=O)[nH]1 (stereo partly shown) [Example 21, diammonium salt] 4.00 to 5.00

// fetch pEC50 given entry Nc1nc2c(ncn2[C@@H]2O[C@@H]3CO[P@@](=O)(S)OC4C(F)[C@H](n5cnc6c(N)nc(Cl)nc65)O[C@@H]4CO[P@@](=O)(S)OC2C3O)c(=O)[nH]1 (stereo partly shown) [Example 10, diammonium salt] 5.00 to 6.00

Supply recorded pEC50 for Nc1nc2c(ncn2[C@@H]2O[C@@H]3CO[P@](=O)(S)OC4C(F)[C@H](n5cnc6c(N)nc(Cl)nc65)O[C@@H]4CO[P@](=O)(S)OC2C3O)c(=O)[nH]1 (stereo partly shown) [Example 9, diammonium salt] here. 4.00 to 5.00

More entries:
Fill in reported pEC50 for this entry: Nc1nc2c(ncn2[C@@H]2O[C@@H]3CO[P@@](=O)(S)OC4C[C@H](n5cnc6c(N)nc(Cl)nc65)O[C@@H]4CO[P@@](=O)(S)OC2C3O)c(=O)[nH]1 (stereo partly shown) [Example 12, diammonium salt] 5.00 to 6.00
